Just for reference, patent US20260062456A1 is where these values come from.

TEST_SYSTEM: human PD-1 stably expressed on Jurkat/IL-2 reporter cells (Jurkat/PD-1 cells) (human, UniProt Q15116 25-288)
Sequence (Q15116 25-288): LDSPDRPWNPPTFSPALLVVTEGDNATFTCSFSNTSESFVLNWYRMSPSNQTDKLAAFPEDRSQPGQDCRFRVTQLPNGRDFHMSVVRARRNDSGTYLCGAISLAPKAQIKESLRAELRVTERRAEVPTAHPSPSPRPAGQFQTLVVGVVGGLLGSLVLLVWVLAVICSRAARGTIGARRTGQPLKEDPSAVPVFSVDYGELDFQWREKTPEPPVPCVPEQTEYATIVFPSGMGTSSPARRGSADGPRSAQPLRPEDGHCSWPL
ASSAY_PROTOCOL: flow cytometry, Jurkat/PD-1 cells
ASSAY_ENDPOINT: Fold Increase over WT PD-L1 ECD-Fc (fold)

[
  {
    "BINDER": "variant PD-L1 ECD-Fc K23N, N45D, Q73R, T163I (Fc fusion, not shown: a dimerising Fc or GST) FTVTVPKDLYVVEYGSNMTIECNFPVEKQLDLAALIVYWEMEDKDIIQFVHGEEDLKVQHSSYRQRARLLKDRLSLGNAALQITDVKLQDAGVYRCMISYGGADYKRITVKVNAPYNKINQRILVVDPVTSEHELTCQAEGYPKAEVIWTSSDHQVLSGKTTITNSKREEKLFNVTSTLRINTTTNEIFYCTFRRLDPEENHTAELVIPELPLAHPPNER",
    "NUMERIC_RESULT": 27.8
  },
  {
    "BINDER": "variant PD-L1 ECD-Fc M41K, D43G, N45D, R64S, S99G (Fc fusion, not shown: a dimerising Fc or GST) FTVTVPKDLYVVEYGSNMTIECKFPVEKQLDLAALIVYWEKEGKDIIQFVHGEEDLKVQHSSYSQRARLLKDQLSLGNAALQITDVKLQDAGVYRCMIGYGGADYKRITVKVNAPYNKINQRILVVDPVTSEHELTCQAEGYPKAEVIWTSSDHQVLSGKTTTTNSKREEKLFNVTSTLRINTTTNEIFYCTFRRLDPEENHTAELVIPELPLAHPPNER",
    "NUMERIC_RESULT": 26.9
  },
  {
    "BINDER": "variant PD-L1 ECD-Fc N45D, S75P, P198S (Fc fusion, not shown: a dimerising Fc or GST) FTVTVPKDLYVVEYGSNMTIECKFPVEKQLDLAALIVYWEMEDKDIIQFVHGEEDLKVQHSSYRQRARLLKDQLPLGNAALQITDVKLQDAGVYRCMISYGGADYKRITVKVNAPYNKINQRILVVDPVTSEHELTCQAEGYPKAEVIWTSSDHQVLSGKTTTTNSKREEKLFNVTSTLRINTTTNEIFYCTFRRLDSEENHTAELVIPELPLAHPPNER",
    "NUMERIC_RESULT": 25.9
  },
  {
    "BINDER": "variant PD-L1 ECD-Fc N45D, V50A, L124S, K144E, L179P, R195G (Fc fusion, not shown: a dimerising Fc or GST) FTVTVPKDLYVVEYGSNMTIECKFPVEKQLDLAALIVYWEMEDKDIIQFAHGEEDLKVQHSSYRQRARLLKDQLSLGNAALQITDVKLQDAGVYRCMISYGGADYKRITVKVNAPYNKINQRISVVDPVTSEHELTCQAEGYPEAEVIWTSSDHQVLSGKTTTTNSKREEKLFNVTSTPRINTTTNEIFYCTFRGLDPEENHTAELVIPELPLAHPPNER",
    "NUMERIC_RESULT": 3.6
  },
  {
    "BINDER": "variant PD-L1 ECD-Fc N45D, V50A, I148V, R195G, N201D (Fc fusion, not shown: a dimerising Fc or GST) FTVTVPKDLYVVEYGSNMTIECKFPVEKQLDLAALIVYWEMEDKDIIQFAHGEEDLKVQHSSYRQRARLLKDQLSLGNAALQITDVKLQDAGVYRCMISYGGADYKRITVKVNAPYNKINQRILVVDPVTSEHELTCQAEGYPKAEVVWTSSDHQVLSGKTTTTNSKREEKLFNVTSTLRINTTTNEIFYCTFRGLDPEEDHTAELVIPELPLAHPPNER",
    "NUMERIC_RESULT": 26.2
  }
]
